Entries and their protein stability index values follow.
B1: ANKRD9 (parent)
chain: VGAAGSARQELLGDRPRWQRLLGE

- Variants of: B1
- Assay Explanation: protein stability index of a GFP-peptide fusion (GPS, HEK-293T) (PSI 1-6); higher = more stable;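 further: lentivirally expressed fusions sorted by FACS into six bins by GFP to DsRed ratio, PSI derived from sequencing read proportions per bin multiplied by bin number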
- Condition Parameters: c terminus: a fixed tail appended

Sequence: VGAAGSARQELMGDRPRWQRLLGE [L12M]
protein stability index: 3.43

Sequence: VGWAGSARQELLGDRPRWQRLLGE [A3W]
protein stability index: 2.53

Sequence: VGAAGSARQELLDDRPRWQRLLGE [G13D]
protein stability index: 2.73

Sequence: VGAAGSARQELRGDRPRWQRLLGE [L12R]
protein stability index: 2.12

Sequence: VHAAGSARQELLGDRPRWQRLLGE [G2H]
protein stability index: 2.56

Sequence: VGAAGSARQELLGDVPRWQRLLGE [R15V]
protein stability index: 3.41

Origin of the recorded values: the supplement of paper PMC10567573
